The measurements presented in this section are drawn from patent US4021449A.

assayOverview: in vivo
measurementConditions: mouse, ip
reportedEndpoint: LD50 (mg/kg)

CCCCCCCCCC(=O)N1C2CN3C4=C(C(=O)C(N)=C(C)C4=O)C(COC(N)=O)C3(OC)C21 (centres unmarked) [1a-decanoyl mitomycin C, la-decanoyl mitomycin C] :: 67.5
CCCCCCCC/C=C\CCCCCCCC(=O)N1C2CN3C4=C(C(=O)C(N)=C(C)C4=O)C(COC(N)=O)C3(OC)C21 (centres unmarked) [1a-oleoyl mitomycin C, la-oleoyl mitomycin C] :: 105
CCCCCCCCCCCCCCCC(=O)N1C2CN3C4=C(C(=O)C(N)=C(C)C4=O)C(COC(N)=O)C3(OC)C21 (centres unmarked) [1a-palmitoyl mitomycin C, la-palmitoyl mitomycin C] :: 75
C/C=C/C(=O)N1C2CN3C4=C(C(=O)C(N)=C(C)C4=O)C(COC(N)=O)C3(OC)C21 (centres unmarked) [1a-crotonoyl mitomycin C, reference compound] :: 35.5
CCCCCC[C@@H](O)C/C=C\CCCCCCCC(=O)N1C2CN3C4=C(C(=O)C(N)=C(C)C4=O)C(COC(N)=O)C3(OC)C21 (some centres unmarked) [1a-ricinoleoyl mitomycin C, la-ricinoleoyl mitomycin C] :: 60
CCCCC/C=C\C/C=C\CCCCCCCC(=O)N1C2CN3C4=C(C(=O)C(N)=C(C)C4=O)C(COC(N)=O)C3(OC)C21 (centres unmarked) [1a-linoleoyl mitomycin C, la-linoleoyl mitomycin C] :: 110
CCCCCCCCCCCCCC(=O)N1C2CN3C4=C(C(=O)C(N)=C(C)C4=O)C(COC(N)=O)C3(OC)C21 (centres unmarked) [1a-myristoyl mitomycin C, la-myristoyl mitomycin C] :: 45
CC/C=C\C/C=C\C/C=C\CCCCCCCC(=O)N1[C@H]2[C@@H]1CN1C3=C(C(=O)C(N)=C(C)C3=O)[C@@H](COC(N)=O)[C@@]21OC [1a-linolenoyl mitomycin C, la-linolenoyl mitomycin C] :: 95
CCCCCCCC/C=C\CCCCCCCCCCCC(=O)N1C2CN3C4=C(C(=O)C(N)=C(C)C4=O)C(COC(N)=O)C3(OC)C21 (centres unmarked) [la-ercoyl mitomycin C] :: 125
COC12C(COC(N)=O)C3=C(C(=O)C(C)=C(N)C3=O)N1CC1C2N1C(C)=O (centres unmarked) [1a-acetyl mitomycin C, reference compound] :: 23
CCCCCCCCCCCCCCCCCC(=O)N1C2CN3C4=C(C(=O)C(N)=C(C)C4=O)C(COC(N)=O)C3(OC)C21 (centres unmarked) [1a-stearoyl mitomycin C, la-stearoyl mitomycin C] :: 75
CCCCCC/C=C/CCCCCCCCCC(=O)N1[C@H]2[C@@H]1CN1C3=C(C(=O)C(N)=C(C)C3=O)[C@@H](COC(N)=O)[C@@]21OC [1a-vaccenoyl mitomycin C, la-vaccenoyl mitomycin C] :: 105
CCCC(=O)N1C2CN3C4=C(C(=O)C(N)=C(C)C4=O)C(COC(N)=O)C3(OC)C21 (centres unmarked) [1a-butyryl mitomycin C, reference compound] :: 19
CCCCCCCCCCCC(=O)N1C2CN3C4=C(C(=O)C(N)=C(C)C4=O)C(COC(N)=O)C3(OC)C21 (centres unmarked) [1a-lauroyl mitomycin C, la-lauroyl mitomycin C] :: 44.5
